- Tested on: NCI-H1048 cells
- methodDescription: MTT proliferation assay, NCI-H1048;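 further: Dose-response in 96-well plates over 8 or 10 concentration points, with exposure spanning 3-4 cell doublings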
- Type: cell-based
- recordedConditions: 5 days compound exposure, 1:3 serial dilution starting at 10 μM
*1 amine or outer side, *2 acyl side, *3 side chain or, on linkers, in order; H or OH if unused. Where a SMILES comes first, the peptide text is derived from it. Bridges are numbered along the chain shown (N, C = ends). [ ]: non-standard residue; d: D form. The star is where a group is joined. X31 = CN1CCC(c2ccc(-c3ccc(Cl)cc3C[C@@H](C(=O)[*:2])N(C)[*:1])cc2)CC1; X130 = CN([C@@H](Cc1cc(F)ccc1-c1ccn(S(C)(=O)=O)c1)C(=O)[*:2])[*:1]; X216 = CN1CCC(c2ccc(Cl)cc2C[C@@H](C(=O)[*:2])N(C)[*:1])=CC1=O; NMehhhLys(Me) = CN([C@@H](CCCCCCCN(C)[*:3])C(=O)[*:2])[*:1]; X51 = CSc1cncc(-c2ccc(Cl)cc2C[C@@H](C(=O)[*:2])N(C)[*:1])c1; cBuCO(3,3-F2-1-CF3) = O=C(C1(C(F)(F)F)CC(F)(F)C1)*; X173 = CN([C@@H](Cc1cc(Cl)cs1)C(=O)[*:2])[*:1]; Pro(trans-4-F) = O=C(O)[C@@H]1C[C@@H](F)CN1; Gly(cPr) = N[C@H](C(=O)O)C1CC1
quantityMeasured: GI50 (nM)
Report the figure in nM without appending any unit label.

{"molecule": "CC(C)C[C@@H]1NC(=O)[C@@H](N(C)C(=O)[C@@H](NC(=O)[C@@H]2C[C@@H](F)CN2C(=O)C2(C(F)(F)F)CC(F)(F)C2)C2CC2)CCCCCCCN(C)C(=O)[C@H](Cc2cc(F)ccc2-c2ccn(S(C)(=O)=O)c2)N(C)C1=O [Example 306] ({cBuCO(3,3-F2-1-CF3)}-[Pro(trans-4-F)][Gly(cPr)][NMehhhLys(Me)]L[X130]; lactam 3-C)", "GI50 [nM]": 10}
{"molecule": "CC(C)C[C@@H]1NC(=O)[C@@H](N(C)C(=O)[C@@H](NC(=O)[C@@H]2C[C@@H](F)CN2C(=O)C2(C(F)(F)F)CC(F)(F)C2)C2CC2)CCCCCCCN(C)C(=O)[C@H](Cc2cc(Cl)ccc2-c2ccc(C3CCN(C)CC3)cc2)N(C)C1=O [Example 358] ({cBuCO(3,3-F2-1-CF3)}-[Pro(trans-4-F)][Gly(cPr)][NMehhhLys(Me)]L[X31]; lactam 3-C)", "GI50 [nM]": 10}
{"molecule": "CC(C)C[C@@H]1NC(=O)[C@@H](N(C)C(=O)[C@@H](NC(=O)[C@@H]2C[C@@H](F)CN2C(=O)C2(C(F)(F)F)CC(F)(F)C2)C2CC2)CCCCCCCN(C)C(=O)[C@H](Cc2cc(Cl)cs2)N(C)C1=O [Example 426] ({cBuCO(3,3-F2-1-CF3)}-[Pro(trans-4-F)][Gly(cPr)][NMehhhLys(Me)]L[X173]; lactam 3-C)", "GI50 [nM]": 90}

Q: # GI50 lookup, item CC(C)C[C@@H]1NC(=O)[C@@H](N(C)C(=O)[C@@H](NC(=O)[C@@H]2C[C@@H](F)CN2C(=O)C2(C(F)(F)F)CC(F)(F)C2)C2CC2)CCCCCCCN(C)C(=O)[C@H](Cc2cc(Cl)ccc2C2=CC(=O)N(C)CC2)N(C)C1=O [Example 237] ({cBuCO(3,3-F2-1-CF3)}-[Pro(trans-4-F)][Gly(cPr)][NMehhhLys(Me)]L[X216]; lactam 3-C)
Result: 10

Q: Give the measured GI50 of CSc1cncc(-c2ccc(Cl)cc2C[C@H]2C(=O)N(C)CCCCCCC[C@H](N(C)C(=O)[C@@H](NC(=O)[C@@H]3C[C@@H](F)CN3C(=O)C3(C(F)(F)F)CC(F)(F)C3)C3CC3)C(=O)N[C@@H](CC(C)C)C(=O)N2C)c1 [Example 202] ({cBuCO(3,3-F2-1-CF3)}-[Pro(trans-4-F)][Gly(cPr)][NMehhhLys(Me)]L[X51]; lactam 3-C) .
Result: 40

Just for reference, patent US20240408169A1 is where these values come from.
